Molecular target: T1, rat IAPP (rat, UniProt P12969 38-74)
T1 construct: Used as the soluble analyte in the Biacore assay in place of human IAPP; also called rat islet amyloid polypeptide
T1 peptide (looked up): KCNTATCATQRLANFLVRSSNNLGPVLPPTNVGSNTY
Assay: SPR (Biacore), antibody captured on anti-human CM5 chip, rat IAPP as analyte, global 1:1 fit
PROPERTY LABEL: koff

Value of koff reported for the binder humanized 3H6 antibody version H2L1 (antibody, V domains shown, also called h3H6-H2L1) VH: EVQLVESGGGLVQPGGSLKLSCAASGFTFSNYWMYWVRQAPGKGLEWVGEIRLKSDNYATHYAESVKGRFTISRDDSKNTAYLQMDSLKTEDTAVYYCTTFDYWGQGTLVTVSS VL: DVVMTQSPLSLPVTLGQPASISCKSSQSLLDSDGKTYLNWLQQRPGQSPKRLIYLVSKLDSGVPDRFSGSGSGTDFTLKISRVEAEDVGVHYCWQGRHFPYTFGQGTKLEIK is 0.00294 s⁻¹

meta.source: patent US20150110776A1
